Tested on: Candida albicans
Assay: Antifungal activity against Candida albicans ATCC 3430 after 72 to 96 hrs by serial dilution method
Type: functional
readout-name: MIC (µg/mL)
Give the number; µg/mL is assumed, so skip it.

MIC in this record for CC(=O)NC1=NN(C(C)=O)C2(S1)C1CCCC2C(c2ccccc2Cl)NC1c1ccccc1Cl (stereo unspecified) : 12.5

MIC in this record for CCC(=O)NC1=NN(C(=O)CC)C2(S1)C1CCCC2C(c2ccccc2)N(C(=O)CC)C1c1ccccc1 (stereo unspecified) : 50

MIC in this record for COc1ccc(C2C3CCCC(C(c4ccc(OC)cc4)N2C(C)=O)C32SC(NC(C)=O)=NN2C(C)=O)cc1 (stereo unspecified) : 25

MIC in this record for CC(=O)N(C1=NN(C(C)=O)C2(S1)C1CCCC2C(c2ccccc2Cl)NC1c1ccccc1Cl)c1ccccc1 (stereo unspecified) : 6.25

MIC in this record for CC(=O)NC1=NN(C(C)=O)C2(S1)C1CCCC2C(c2ccc(C)cc2)NC1c1ccc(C)cc1 (stereo unspecified) : 25

MIC in this record for CCC(=O)NC1=NN(C(=O)CC)C2(S1)C1CCCC2C(c2ccc(C)cc2)NC1c1ccc(C)cc1 (stereo unspecified) : 25

MIC in this record for COc1cccc(C2NC(c3cccc(OC)c3)C3CCCC2C32SC(NC(C)=O)=NN2C(C)=O)c1 (stereo unspecified) : 25

MIC in this record for CCC(=O)NC1=NN(C(=O)CC)C2(S1)C1CCCC2C(c2cccc(F)c2)NC1c1cccc(F)c1 (stereo unspecified) : 25

MIC in this record for CCC(=O)NC1=NN(C(=O)CC)C2(S1)C1CCCC2C(c2ccc(F)cc2)NC1c1ccc(F)cc1 (stereo unspecified) : 6.25

MIC in this record for CC(=O)NC1=NN(C(C)=O)C2(S1)C1CCCC2C(c2ccc(F)cc2)NC1c1ccc(F)cc1 (stereo unspecified) : 6.25

MIC in this record for CCC(=O)NC1=NN(C(=O)CC)C2(S1)C1CCCC2C(c2cccc(OC)c2)N(C(=O)CC)C1c1cccc(OC)c1 (stereo unspecified) : 25

MIC in this record for CC(=O)NC1=NN(C(C)=O)C2(S1)C1CCCC2C(c2ccccc2)N(C(C)=O)C1c1ccccc1 (stereo unspecified) : 100

MIC in this record for CCC(=O)N(C1=NN(C(=O)CC)C2(S1)C1CCCC2C(c2ccccc2Cl)NC1c1ccccc1Cl)c1ccccc1 (stereo unspecified) : 50

MIC in this record for CC(=O)N(C1=NN(C(C)=O)C2(S1)C1CCCC2C(c2ccc(Cl)cc2)N(C(C)=O)C1c1ccc(Cl)cc1)c1ccccc1 (stereo unspecified) : 100

MIC in this record for `C[C@@H]1[C@H](O)[C@@H](C)/C=C/C=C/C=C/C=C/C=C/C=C/C=C/[C@H](O[C@@H]2O[C@H](C)[C@@H](O)[C@H](N)[C@@H]2O)C[C@@H]2O[C@](O)(C[C@@H](O)C[C@@H](O)[C@H](O)CC[C@@H](O)C[C@@H](O)CC(=O)O[C@H]1C)C[C@H](O)[C@H]2C(=O)O` : 25

MIC in this record for CC(=O)NC1=NN(C(C)=O)C2(S1)C1CCCC2C(c2ccc(Cl)cc2)NC1c1ccc(Cl)cc1 (stereo unspecified) : 25

====

Exercise: state measured MIC for each of the compounds provided.
System: Candida albicans
Test: Antifungal activity against Candida albicans ATCC 3430 after 72 to 96 hrs by serial dilution method
Format: functional
Give the number; µg/mL is assumed, so skip it.

Candida albicans MIC of CC(=O)NC1=NN(C(C)=O)C2(S1)C1CCCC2C(c2cccc(F)c2)NC1c1cccc(F)c1 (centres undefined) is 25

Candida albicans MIC of CCC(=O)NC1=NN(C(=O)CC)C2(S1)C1CCCC2C(c2ccc(Cl)cc2)NC1c1ccc(Cl)cc1 (centres undefined) is 12.5

Candida albicans MIC of CCC(=O)NC1=NN(C(=O)CC)C2(S1)C1CCCC2C(c2ccccc2Cl)NC1c1ccccc1Cl (centres undefined) is 12.5

Candida albicans MIC of CCC(=O)NC1=NN(C(=O)CC)C2(S1)C1CCCC2C(c2ccc(OC)cc2)N(C(=O)CC)C1c1ccc(OC)cc1 (centres undefined) is 25

====

System: Klebsiella pneumoniae
Experiment: Antibacterial activity against Klebsiella pneumoniae ATCC 16425 after 24 hrs by serial dilution method
Assay type: functional
Conditions: ATCC 16425, 24 h
Exercise: state measured MIC for each of the compounds provided.
Give the number; µg/mL is assumed, so skip it.

MIC in this record for CCC(=O)NC1=NN(C(=O)CC)C2(S1)C1CCCC2C(c2ccc(OC)cc2)N(C(=O)CC)C1c1ccc(OC)cc1 (stereo not drawn) : 25

MIC in this record for CCC(=O)NC1=NN(C(=O)CC)C2(S1)C1CCCC2C(c2ccc(F)cc2)NC1c1ccc(F)cc1 (stereo not drawn) : 25

MIC in this record for CCC(=O)NC1=NN(C(=O)CC)C2(S1)C1CCCC2C(c2cccc(F)c2)NC1c1cccc(F)c1 (stereo not drawn) : 50

====

System: Klebsiella pneumoniae
Test: Antibacterial activity against Klebsiella pneumoniae ATCC 16425 after 24 hrs by serial dilution method
Assay type: functional
Settings: ATCC 16425, 24 h
readout-name: MIC
Mention the unit after the number when you answer.

MIC in this record for COc1cccc(C2NC(c3cccc(OC)c3)C3CCCC2C32SC(NC(C)=O)=NN2C(C)=O)c1 (configuration not stated) : 100 µg/mL

MIC in this record for CC(=O)N(C1=NN(C(C)=O)C2(S1)C1CCCC2C(c2ccccc2Cl)NC1c1ccccc1Cl)c1ccccc1 (configuration not stated) : 100 µg/mL

MIC in this record for CCC(=O)NC1=NN(C(=O)CC)C2(S1)C1CCCC2C(c2ccc(Cl)cc2)NC1c1ccc(Cl)cc1 (configuration not stated) : 100 µg/mL

MIC in this record for CC(=O)NC1=NN(C(C)=O)C2(S1)C1CCCC2C(c2cccc(F)c2)NC1c1cccc(F)c1 (configuration not stated) : 6.25 µg/mL

MIC in this record for CCC(=O)NC1=NN(C(=O)CC)C2(S1)C1CCCC2C(c2ccccc2)N(C(=O)CC)C1c1ccccc1 (configuration not stated) : 50 µg/mL

MIC in this record for `CN[C@@H]1[C@H](O[C@H]2[C@H](O[C@H]3[C@H](O)[C@@H](O)[C@H](N=C(N)N)[C@@H](O)[C@@H]3N=C(N)N)O[C@@H](C)[C@]2(O)C=O)O[C@@H](CO)[C@H](O)[C@H]1O` : 25 µg/mL

MIC in this record for CC(=O)NC1=NN(C(C)=O)C2(S1)C1CCCC2C(c2ccccc2)N(C(C)=O)C1c1ccccc1 (configuration not stated) : 100 µg/mL

Hello, the source for this data is ChEMBL document CHEMBL1268977, in case you need it.
